Values from patent US20250290915A1

Listing of entries alongside the reported Drug response score, conc. 3.
# System: Circulating Tumour Cells (CTCs) from a patient with sex cord stromal tumour, ovarian tumour
# ASSAY: Drug response score assay on CTCs from blood, Example 4
# Assay type: cell-based, human
# DETAILS: conc. 3: Cyclo 40 μg/ml, Vinc 40 ng/ml, Etop 20 μg/ml, Bini 400 ng/ml, Doxo 90 ng/ml; CTCs; t96h

Worked cases, answers included:
| COMPOUND | Drug response score, conc. 3 |
| --- | --- |
| O=P1(N(CCCl)CCCl)NCCCO1 (centres unmarked) [Cyclophosphamide] | 0.41 |
| COc1cccc2c1C(=O)c1c(O)c3c(c(O)c1C2=O)C[C@@](O)(C(=O)CO)C[C@@H]3O[C@H]1C[C@H](N)[C@H](O)[C@H](C)O1 | 0.54 |

## Task What value of measured Drug response score, conc. 3 is listed for `CC[C@]1(O)C[C@H]2CN(CCc3c([nH]c4ccccc34)[C@@](C(=O)OC)(c3cc4c(cc3OC)N(C=O)[C@H]3[C@@](O)(C(=O)OC)[C@H](OC(C)=O)[C@]5(CC)C=CCN6CC[C@]43[C@@H]65)C2)C1` ?
## Result 1.83

## Task Cool, now `Cn1cnc2c(F)c(Nc3ccc(Br)cc3F)c(C(=O)NOCCO)cc21`
## Result 1.19

## Task # iterate: COc1cc([C@@H]2c3cc4c(cc3[C@@H](O[C@@H]3O[C@@H]5CO[C@@H](C)O[C@H]5[C@H](O)[C@H]3O)[C@H]3COC(=O)[C@H]23)OCO4)cc(OC)c1O [Etoposide]
## Result 1.19

---

# System: Circulating Tumour Cells (CTCs, EpCam+CD45−) from a patient with stage II synovial sarcoma
# ASSAY: Drug response score assay (RealTime-Glo MT / CellTox Green, PCL scaffold) on CTCs from blood, Example 1
# Type: cell-based, human
# Set-up: key: normalized drug response metric per Gupta et al. 2020
# DETAILS: conc. 1: Doxo 10 ng/ml, Ifos 0.125 μg/ml, Gemcit 2 μg/ml, Doce 0.02 μg/ml, Carbo 2 μg/ml, Dacarb 1.5 μg/ml; CTCs; t96h, re-dosed at 48 h
Drug response score, conc. 1 listing for selected compounds.
Just the number, please, no unit attached.

Study these solved cases before continuing.
| COMPOUND | METRIC_NAME | EXPERIMENTAL_VALUE |
| --- | --- | --- |
| CN(C)/N=N/c1[nH]cnc1C(N)=O | Drug response score, conc. 1 | 2.1563 |
| N.N.O=C([O-])C1(C(=O)[O-])CCC1.[Pt+2] | Drug response score, conc. 1 | 1.4015 |
| COc1cccc2c1C(=O)c1c(O)c3c(c(O)c1C2=O)C[C@@](O)(C(=O)CO)C[C@@H]3O[C@H]1C[C@H](N)[C@H](O)[C@H](C)O1 | Drug response score, conc. 1 | 0.9432 |

## Task Which Drug response score, conc. 1 is reported with Circulating Tumour Cells (CTCs, EpCam+CD45−) from a patient with stage II synovial sarcoma for this entry: `Nc1ccn([C@@H]2O[C@H](CO)[C@@H](O)C2(F)F)c(=O)n1` ?
## Result 0.9382

## Task Lookup `CC(=O)O[C@@]12CO[C@@H]1C[C@H](O)[C@@]1(C)C(=O)[C@H](O)C3=C(C)[C@@H](OC(=O)[C@H](O)[C@@H](NC(=O)OC(C)(C)C)c4ccccc4)C[C@@](O)([C@@H](OC(=O)c4ccccc4)[C@H]21)C3(C)C`
## Result 0.8633

## Task Can you check O=P1(NCCCl)OCCCN1CCCl (stereo not drawn) [Ifosfamide] next?
## Result 0.7534

---

Form field: Drug response score, conc. 4 (one value per entry).
# Tested on: Circulating Tumour Cells (CTCs) from a patient with colon cancer (sigmoid colon cancer)
# ASSAY: Drug response score assay on CTCs from blood, Example 8
# Format: cell-based, human
# Design: key: normalized drug response metric (Gupta et al. 2020)
# DETAILS: conc. 4 of each drug as in Table 24; CTCs; t96h

| COMPOUND | Drug response score, conc. 4 |
| --- | --- |
| COc1cc([C@@H]2c3cc4c(cc3[C@@H](O[C@@H]3O[C@@H]5CO[C@@H](C)O[C@H]5[C@H](O)[C@H]3O)[C@H]3COC(=O)[C@H]23)OCO4)cc(OC)c1O [Etoposide] | 0.1129 |

## Task Look up Drug response score, conc. 4: CC(=O)O[C@H]1C(=O)[C@@]2(C)[C@H]([C@H](OC(=O)c3ccccc3)[C@]3(O)C[C@H](OC(=O)[C@H](O)[C@@H](NC(=O)c4ccccc4)c4ccccc4)C(C)=C1C3(C)C)[C@]1(OC(C)=O)CO[C@@H]1C[C@@H]2O [Paclitaxel]
## Result −0.8009

---

# Test system: cancer cells derived from the tissue sample of a patient with osteosarcoma
# ASSAY: Drug response score assay on tissue sample, Example 10
# Type: cell-based, human
# DETAILS: osteosarcoma tissue sample, Table 33
METRIC_NAME: Drug sensitivity as calculated by the assay (interpretation of Drug Response Scores)

| MOLECULE | EXPERIMENTAL_VALUE |
| --- | --- |
| COc1cc([C@@H]2c3cc4c(cc3[C@@H](O[C@@H]3O[C@@H]5CO[C@@H](C)O[C@H]5[C@H](O)[C@H]3O)[C@H]3COC(=O)[C@H]23)OCO4)cc(OC)c1O [Etoposide] | Sensitive (S+) |
| O=P1(NCCCl)OCCCN1CCCl (stereo not shown) [Ifosfamide] | Sensitive (S+) |

---

# Tested on: Circulating Tumour Cells (CTCs) from a patient with sex cord stromal tumour, ovarian tumour
# ASSAY: Drug response score assay on CTCs from blood, Example 4
# Type: cell-based, human
# DETAILS: sex cord stromal / ovarian tumour CTCs
# Procedure: CD45^+ cells and circulating tumour cells (CTCs) were isolated from a blood sample provided by each subject. […] At the end of this culture period, dose response scores were calculated using a normalized drug response metric as described in Gupta et al. (Communications Biology volume 3, Article number: 42 (2020), https://doi.org/10.1038/s42003-020-0765-z). […] The positive control start readout for a given drug/concentration was the to readout for the corresponding drug at a specified concentration. […]
METRIC_NAME: effectiveness on Circulating Tumour Cells (CTCs) under laboratory conditions

| COMPOUND | EXPERIMENTAL_VALUE |
| --- | --- |
| COc1cc([C@@H]2c3cc4c(cc3[C@@H](O[C@@H]3O[C@@H]5CO[C@@H](C)O[C@H]5[C@H](O)[C@H]3O)[C@H]3COC(=O)[C@H]23)OCO4)cc(OC)c1O [Etoposide] | not effective |
| O=P1(N(CCCl)CCCl)NCCCO1 (centres unmarked) [Cyclophosphamide] | show effectiveness |
| CC[C@]1(O)C[C@H]2CN(CCc3c([nH]c4ccccc34)[C@@](C(=O)OC)(c3cc4c(cc3OC)N(C=O)[C@H]3[C@@](O)(C(=O)OC)[C@H](OC(C)=O)[C@]5(CC)C=CCN6CC[C@]43[C@@H]65)C2)C1 | not effective |
| COc1cccc2c1C(=O)c1c(O)c3c(c(O)c1C2=O)C[C@@](O)(C(=O)CO)C[C@@H]3O[C@H]1C[C@H](N)[C@H](O)[C@H](C)O1 | show effectiveness |

Turning now to a further compound:
## Task Returns the measured effectiveness on Circulating Tumour Cells (CTCs) under laboratory conditions for the input compound. Input: `Cn1cnc2c(F)c(Nc3ccc(Br)cc3F)c(C(=O)NOCCO)cc21`
## Result not effective

---

Measured Drug response score, conc. 4 of individual entries
# System: Circulating Tumour Cells (CTCs) from a patient with colon cancer (sigmoid colon cancer)
# ASSAY: Drug response score assay on CTCs from blood, Example 8
# Assay type: cell-based, human
# DETAILS: conc. 4 of each drug as in Table 24; CTCs; t96h
Number, no unit, nothing else.

## Task Give the measured Drug response score, conc. 4 of O=P1(N(CCCl)CCCl)NCCCO1 (stereo not drawn) [Cyclophosphamide] .
## Result 2.5058

## Task Next molecule: C=C1C[C@@H]2CC[C@@]34C[C@H]5O[C@H]6[C@@H](O3)[C@H]3O[C@H](CC[C@@H]3O[C@H]6[C@H]5O4)CC(=O)C[C@@H]3[C@@H](OC)[C@@H](C[C@H](O)CN)O[C@H]3C[C@H]3O[C@@H](CC[C@@H]1O2)C[C@@H](C)C3=C [Eribuline]
## Result −0.4785

## Task Also check Nc1nc2[nH]cc(CCc3ccc(C(=O)N[C@@H](CCC(=O)O)C(=O)O)cc3)c2c(=O)[nH]1 [Pemetrexed]
## Result −1.0000

---

# reported Drug response score, conc. 3; entries follow
# Test system: Circulating Tumour Cells (CTCs) from a patient with colon cancer (sigmoid colon cancer)
# ASSAY: Drug response score assay on CTCs from blood, Example 8
# Type: cell-based, human
# Parameters: key: normalized drug response metric (Gupta et al. 2020)
# DETAILS: conc. 3 of each drug as in Table 24; CTCs; t96h
Enter a number only.

Some entries whose results are on file:
| MOLECULE | SYSTEM_TESTED | Drug response score, conc. 3 |
| --- | --- | --- |
| Nc1nc2[nH]cc(CCc3ccc(C(=O)N[C@@H](CCC(=O)O)C(=O)O)cc3)c2c(=O)[nH]1 | Circulating Tumour Cells (CTCs) from a patient with colon cancer (sigmoid colon cancer) | −1.0000 |
| COc1cc([C@@H]2c3cc4c(cc3[C@@H](O[C@@H]3O[C@@H]5CO[C@@H](C)O[C@H]5[C@H](O)[C@H]3O)[C@H]3COC(=O)[C@H]23)OCO4)cc(OC)c1O [Etoposide] | Circulating Tumour Cells (CTCs) from a patient with colon cancer (sigmoid colon cancer) | −0.6648 |
| C=C1C[C@@H]2CC[C@@]34C[C@H]5O[C@H]6[C@@H](O3)[C@H]3O[C@H](CC[C@@H]3O[C@H]6[C@H]5O4)CC(=O)C[C@@H]3[C@@H](OC)[C@@H](C[C@H](O)CN)O[C@H]3C[C@H]3O[C@@H](CC[C@@H]1O2)C[C@@H](C)C3=C | Circulating Tumour Cells (CTCs) from a patient with colon cancer (sigmoid colon cancer) | −0.0329 |
| Cn1nnc2c(C(N)=O)ncn2c1=O [Temozolamide] | Circulating Tumour Cells (CTCs) from a patient with colon cancer (sigmoid colon cancer) | −0.1421 |
| COc1cccc2c1C(=O)c1c(O)c3c(c(O)c1C2=O)C[C@@](O)(C(=O)CO)C[C@@H]3O[C@H]1C[C@H](N)[C@H](O)[C@H](C)O1 | Circulating Tumour Cells (CTCs) from a patient with colon cancer (sigmoid colon cancer) | −0.2828 |

Now take the following molecule into account.
## Task Give Circulating Tumour Cells (CTCs) from a patient with colon cancer (sigmoid colon cancer) Drug response score, conc. 3 for O=P1(N(CCCl)CCCl)NCCCO1 (stereo not drawn) [Cyclophosphamide]
## Result 0.6810
